- PROTOCOL DESCRIPTION: xn = mol fraction of the nth substance listed
- CONDITION NOTES: 303.15 K; 98.93 kPa; Liquid; x1 = 0.01
ASSAY METRIC: mass density (kg/m3)
Answers are plain numbers, in kg/m3.

Check out these entries, answers already filled in.
MOLECULE	MEASURE UNIT	mass density
CCCO [propan-1-ol] + O	kg/m3	989.92
OCCCO [propan-1,3-diol] + O	kg/m3	998.14
OCC(O)CO [glycerol] + O	kg/m3	1007.12

Read the next record carefully.
query: Annotate the molecule CC(O)CO (centres undefined) [1,2-propanediol] + O with its measured mass density.
result: 998.12
